target: Torsin-1A (Homo sapiens) (UniProt O14656); test: torsin A binders from cell lysate, primary screen, small-molecule microarray, wild-type, 635/667 nm (AID 1149); conditions: COS7 hTOR1A-WT lysate, 635 nm fluorescence, higher = more signal
Sequence (O14656 whole entry, looked up): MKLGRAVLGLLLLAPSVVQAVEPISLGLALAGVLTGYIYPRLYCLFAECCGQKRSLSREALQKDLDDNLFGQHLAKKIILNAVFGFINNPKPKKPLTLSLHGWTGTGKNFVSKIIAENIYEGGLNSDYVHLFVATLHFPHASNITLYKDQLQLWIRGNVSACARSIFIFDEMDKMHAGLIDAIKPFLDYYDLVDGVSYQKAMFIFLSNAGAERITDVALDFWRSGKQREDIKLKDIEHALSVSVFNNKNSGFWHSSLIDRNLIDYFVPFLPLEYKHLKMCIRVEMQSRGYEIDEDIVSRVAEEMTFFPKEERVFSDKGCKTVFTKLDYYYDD
Use -0.2 as the dividing line for composite z-score, with the line itself on the 1.0 side and lower values as 0.0.

I'd appreciate it if you could say whether CCOC(=O)C[C@H]1[C@H](OC(=O)c2ccccc2-c2ccccc2)[C@@H](NC(=O)CC(C)C)c2cc(OCCCO)ccc2N1C(=O)Cc1ccc(OC)cc1 has composite z-score at least equal to -0.2.
1.0

Record: COC(=O)[C@@]1(Cc2ccc(OC)cc2)[C@H]2c3cc(C(=O)N(C)C)n(C)c3C[C@H]2CN1C(=O)c1ccccc1
1.0

Record: COC(=O)[C@@]1(Cc2ccc(OC)cc2)[C@H]2c3cc(C(=O)N4CCCC4)n(Cc4ccc(O)c(OC)c4)c3C[C@H]2CN1C(=O)c1ccccc1
0.0

Record: COc1cc2c(cc1O)C(c1cccs1)N(C)CC2 (configuration not stated)
0.0

Record: COC(=O)[C@@]1(Cc2ccccc2)[C@H]2c3cc(C(=O)N(C)C)n(Cc4ccsc4Br)c3C[C@H]2CN1C(=O)c1ccccc1
1.0

Others:
I'd appreciate it if you could say whether C=CCC(OC(C)=O)[C@@H]1[C@@H](N(Cc2ccc(-c3cccc(C(F)(F)F)c3)o2)C(=O)c2ccc(C)cc2)c2cc(OCCCO)ccc2N1C(=O)Cc1ccc2ccccc2c1 (some centres not stated) has composite z-score at least equal to -0.2.
0.0

Record: NCCCCCNC(=O)[C@@H]1C[C@@H]2C(=O)N[C@@H](Cc3ccccc3)C(=O)N2[C@@H]1c1ccc(O)cc1
1.0

----------
tested on: Human papillomavirus type 1a protein E7 (residues 44-93); assay: HPV1a E7 fragment binders on microarrays, primary screen, biochemical, small-molecule microarray, residues 44-93, 635 nm fluorescence (AID 1108); details: small-molecule microarray binding, fluorescence 635 nm; higher = more signal;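 also: E7 fragment applied at 1 µg/mL in TBST for 1 h at 4 C; score combines spot fluorescence with its signal to noise ratio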
Use 0.3 as the dividing line for composite z-score, with the line itself on the t side and lower values as f.

Known results for molecules:
I'd appreciate it if you could say whether COC(=O)[C@@]1(Cc2ccc(OC)cc2)[C@H]2c3cc(C(=O)N4CCCC4)n(CCN4CNCC4=O)c3C[C@H]2CN1C(=O)c1ccccc1 has composite z-score at least equal to 0.3.
f

Record: C[N+](C)(C)CCCCNC(=O)[C@@H]1C[C@@H]2C(=O)N[C@@H](Cc3ccccc3)C(=O)N2[C@@H]1c1cccc(OCCO)c1
f

Record: COC(=O)[C@@]1(Cc2ccc(F)cc2)[C@H]2c3cc(C(=O)N(C)C)n(Cc4cc(F)c(F)c(F)c4)c3C[C@H]2CN1C(=O)c1ccccc1
t

Record: COCCOC(=O)N1C(=O)[C@@]2(c3cc(C#CCC(C(=O)OC)C(=O)OC)ccc31)[C@H](c1ccccc1OCCO)N1[C@H](c3ccccc3)[C@H](c3ccccc3)OC(=O)[C@H]1[C@@H]2C(=O)N1CCN(c2ncccn2)CC1
t

Record: CCCCC(CC)C(O)C1C=CC2C(=O)N(Cc3ccccc3)C(=O)C2N1n1cnnc1 (stereo unspecified)
f

Now for a further molecule.
I'd appreciate it if you could say whether C=CCOC(=O)[C@H]1[C@@H]2C(=O)O[C@@H](c3ccccc3)[C@@H](c3ccccc3)N2[C@@H](c2ccc(OCCOC(=O)[C@@H]3C[C@@H]4C(=O)N[C@@H](CCCCNC(C)=O)C(=O)N4[C@@H]3c3ccc(O)cc3)cc2)[C@]12C(=O)Nc1ccccc12 has composite z-score at least equal to 0.3.
t

----------
For each of the compounds below, state its composite Z-score.
test: small-molecule microarray binders of probe aXIP, primary screen, biochemical, NeuroSMM set, 635/667 nm fluorescence (AID 1119); details: higher = more signal, called active from +8 up or from −8 down;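 also: probe is the protein aXip251-270 applied at 1 µg/mL to compound-printed slides; binding of probe to printed compounds measured as 667 nm fluorescence plus signal to noise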
One number for each entry.

So what's the measured composite Z-score for this one? COC(=O)[C@]1(CCC(=O)OC(C)(C)C)N=C(c2ccc(OCCCO)cc2)O[C@@H]1c1ccccc1CN=[N+]=[N-]
-1.26

Batch of 6 compounds: report composite Z-score for each.
1. CCC(CC)C(O)C1C=CC2C(=O)NC(=O)C2N1Nc1ccccn1 (configuration not stated)
2. C=CCOC(=O)[C@H]1[C@@H]2C(=O)O[C@@H](c3ccccc3)[C@@H](c3ccccc3)N2[C@@H](c2ccc(OCCOC(=O)[C@@H]3C[C@@H]4C(=O)N[C@@H](CCCCNC(C)=O)C(=O)N4[C@@H]3c3ccc(O)cc3)cc2)[C@]12C(=O)Nc1ccccc12
3. COC(=O)[C@H](Cc1ccccc1)N[C@@H](/C=C/C1CC1)[C@H](O)Cc1ccccc1
4. Oc1ccc2cc[n+](Cc3sc4ccccc4c3Cl)cc2c1
5. [N-]=[N+]=Nc1ccccc1[C@H]1OC(c2ccc(OCCCO)cc2)=N[C@@]1(CCS(=O)(=O)c1ccccc1)C(N)=O
6. C=C(CCCC)/C(=C/C[C@@H](OC(C)=O)c1ccc(OCCO)cc1)c1cnc2ccccc2c1

[-0.248, 0.282, -0.16, 0.598, 0.211, -0.302]

----------
assay: small-molecule binders of probe aInhba, primary screen, biochemical, small-molecule microarray, 635/667 nm fluorescence (AID 1148); conditions: higher = more signal;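 also: score merges 667nm spot fluorescence with signal-to-noise for antibody binding to printed compounds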
Use 0.1 as the dividing line for composite z-score, with the line itself on the Met side and lower values as Not met.

I'd appreciate it if you could say whether C=CC[C@@]1(C(=O)NCCN2CCOCC2)N=C(c2ccc(OCCCO)cc2)O[C@@H]1c1ccccc1N=[N+]=[N-] has composite z-score at least equal to 0.1.
Not met

Record: CC(C)c1ccc(NN2C(C(O)c3ccc(B(O)O)cc3)C=CC3C(=O)N(c4ccccc4)C(=O)C32)cc1 (stereo unspecified)
Met

Record: CC(CO)N1C(=O)[C@@H]2C3C(=O)OCCC/C=C\[C@H]3OC23C=CCN(C(C)(C)C)C(=O)[C@@H]13 (stereo partly specified)
Not met

Record: COC(=O)[C@@]1(CCS(=O)(=O)c2ccccc2)N=C(c2ccc(OCCCO)cc2)O[C@H]1c1ccccc1CN=[N+]=[N-]
Not met

Record: COC(=O)C(CC#Cc1ccc2c(c1)[C@]1(C(=O)N2)[C@H](C(=O)Nc2nc3ccccc3s2)[C@H]2C(=O)O[C@H](c3ccccc3)[C@H](c3ccccc3)N2[C@@H]1c1ccc(O)cc1)C(=O)OC
Not met

Record: NC(=O)NCC#Cc1ccc2c(c1)[C@]1(C(=O)N2)[C@H](C(=O)Nc2nc3ccccc3s2)[C@H]2C(=O)O[C@H](c3ccccc3)[C@H](c3ccccc3)N2[C@@H]1c1ccccc1OCCO
Met

----------
For each of the molecules below, state its composite z-score.
target: Focal adhesion kinase 1 (Homo sapiens); test: small-molecule microarray binders of FAK, primary screen, biochemical, 635/667 nm fluorescence, BSA, DTT (AID 1130); settings: PTK2 binding, 635 nm fluorescence, higher = more signal;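 also: composite of spot emission at 667 nm and signal to noise over triplicate slides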
Give bare numbers.

So what's the measured composite z-score for this one? COc1ccccc1CN1C(=O)c2ccccc2[C@@]2(Cc3ccccc3N(CC(C)C)C2=O)[C@@H]1c1ccc(CO)cc1
-0.362

Batch of 6 molecules: report composite z-score for each.
1. CN1C(=O)C2C=CC(C(O)c3ccco3)N(Nc3ccccc3)C2C1=O (stereo not given)
2. O=C(c1ccccc1)N1C(=O)[C@@]2(Cc3ccccc31)N=C(c1ccc(OCCCO)cc1)O[C@H]2c1ccccc1
3. O=C1C[C@@](C(=O)NC2CC2)(c2ccc([N+](=O)[O-])cc2)[C@@H](c2ccc(CO)cc2I)N1C1CCCCC1
4. CC(C)N1C(=O)[C@@]2(Cc3ccccc31)c1ccccc1C(=O)N(Cc1ccccc1Cl)[C@H]2c1ccc(CO)cc1
5. CCC(CC)C(O)C1C=CC2C(=O)NC(=O)C2N1Nc1ccc(Cl)cc1Cl (stereo not given)
6. COCCOC(=O)N1C(=O)[C@@]2(c3cc(C#Cc4ccc(OC)cc4)ccc31)[C@H](c1ccc(O)cc1)N1[C@H](c3ccccc3)[C@H](c3ccccc3)OC(=O)[C@H]1[C@@H]2C(=O)N1CCc2cc(OC)c(OC)cc2C1

[-0.0653, 1.23, -0.109, -0.236, 0.383, 1.02]

Batch of 4 molecules: report composite z-score for each.
1. COc1cc2c(cc1OC)CN(C(=O)[C@H]1[C@@H]3C(=O)O[C@@H](c4ccccc4)[C@@H](c4ccccc4)N3[C@@H](c3ccc(O)cc3)[C@]13C(=O)Nc1ccc(C#CCCO)cc13)CC2
2. CC1CC/C=C\[C@H]2OC34C=CCN(C(C)(C)C)C(=O)[C@H]3N(CCO)C(=O)[C@@H]4C2C(=O)O1 (stereo not given in full)
3. CC(C)CNC(=O)[C@@]1(Cc2ccccc2I)c2ccccc2C(=O)N(C2CCCCC2)[C@H]1c1ccc(CO)cc1
4. Cc1ccc(S[C@]2(C(=O)NCCCN(C)C)CC(=O)N(Cc3cc(C(F)(F)F)cc(C(F)(F)F)c3)[C@@H]2c2ccc(CO)cc2)cc1

[0.055, -0.0131, 0.321, 0.145]

Batch of 3 molecules: report composite z-score for each.
1. NC(=O)NCC#Cc1ccc2c(c1)[C@]1(C(=O)N2)[C@H](C(N)=O)[C@H]2C(=O)O[C@H](c3ccccc3)[C@H](c3ccccc3)N2[C@@H]1c1ccc(O)cc1
2. CCOC(=O)C[C@H]1[C@H](OC(=O)c2ccc(C(=O)c3ccccc3)cc2)[C@@H](NC(=O)c2ccc3ccccc3n2)c2cc(OCCCO)ccc2N1C(=O)c1ccccc1
3. CCCC[C@@H]1C[C@H]1[C@@H](NC(=O)c1cccs1)c1ccc(-c2ccccc2)cc1

[-0.209, 0.0305, 0.0412]

So what's the measured composite z-score for this one? CC[C@@H]1C=C(C(=O)O)[C@H](c2ccc(Br)cc2)N1S(=O)(=O)c1ccc(C)cc1
0.453
